Test: Osmolality of API formulations (micro osmometer, triplicate)
Format: physicochemical
Conditions: CapAcid-API Freebase Formulation (70 mg/mL API FB, 1.1 molar equivalent CapAcid), after pH titration with NaOH or HCl
Exercise: for every item that follows, state its recorded Osmolality.
Enter your answer as a number in mOsm/kg; do not include the unit.

Bench note: what Osmolality did NC12CC3CC(CC(C3)C1)C2 [1-Amantadine] show?
411.6

Bench note: what Osmolality did COC(=O)[C@@H](N)Cc1ccc(O)c(O)c1 [Melevodopa] show?
605.7

Bench note: what Osmolality did NC1C2CC3CC(C2)CC1C3 (stereo not shown) [2-Amantadine] show?
435.7

Bench note: what Osmolality did CC(N)C12CC3CC(CC(C3)C1)C2 (stereo not shown) [Rimantadine] show?
301.7

Bench note: what Osmolality did C=CCN1CC[C@]23c4c5ccc(O)c4O[C@H]2C(=O)CC[C@@]3(O)[C@H]1C5 [Naloxone] show?
139.7

* * *

Exercise: for every item that follows, state its recorded pH of the solution before titration.
Experiment: pH of API formulations (pH meter)
Assay type: physicochemical
Conditions: 1:1 ratio of API to CapAcid

Bench note: what pH of the solution before titration did CCCN(CCc1cccs1)[C@H]1CCc2c(O)cccc2C1 [rotigotine] show?
0.93

Bench note: what pH of the solution before titration did N=C(N)c1ccc2cc(OC(=O)c3ccc(N=C(N)N)cc3)ccc2c1 [Nafamostat] show?
0.49

Bench note: what pH of the solution before titration did CN1CCC[C@@H]1Cc1c[nH]c2ccc(CCS(=O)(=O)c3ccccc3)cc12 [eletriptan] show?
0.48

Bench note: what pH of the solution before titration did COc1c(OCCCN2CCOCC2)ccc2c1N=C(NC(=O)c1cnc(N)nc1)N1CCN=C21 [Copanlisib] show?
0.76

* * *

Experiment: Concentration test of rimantadine HCl in water
Assay type: physicochemical
Conditions: pH 6.83, aqueous with cosolvent or surfactant or cyclodextrin, thermodynamic from solid; HPLC grade water, stirred overnight; read-out: concentration at which the salt was soluble in water (FB equivalents)
Method: A solution of 50 mg/mL rimantadine HCl, FB equivalents, (120.3 mg, 0.56 mmol), was prepared by adding 1.7 mL of HPLC grade water and an addition of a solution of benzethonium chloride (20 μL, […], 0.01% final concentration). […] It was diluted until it did dissolve, which took a total of 4.6 mL of HPLC (including the initial 1.7 mL). The solution was left to stir overnight. The solution was diluted to 5 mL, making the final concentration 20 mg/mL. […]
Where a name gives a salt, the structure may show the parent alone.
RECORDED METRIC: solubility (mg/mL)
Enter your answer as a number in mg/mL; do not include the unit.

Bench note: what solubility did CC(N)C12CC3CC(CC(C3)C1)C2 (stereo not shown) [Rimantadine HCl] show?
20

* * *

Assay: pH of API formulations (pH meter)
Format: physicochemical
Conditions: Captisol®-Na^+ formulation, 70 mg/mL API Salt in FB equivalent, 1.1 molar equivalent Captisol®-Na^+, final pH
Exercise: for every item that follows, state its recorded pH.
// print number alone

Bench note: what pH did NC1C2CC3CC(C2)CC1C3 (stereo not shown) [2-Amantadine] show?
7.01

Bench note: what pH did CC[C@H](C)C[C@H](C)CCCCCCCCC(=O)N[C@H]1C[C@@H](O)[C@@H](NCCN)NC(=O)[C@@H]2[C@@H](O)CCN2C(=O)[C@H]([C@H](O)CCN)NC(=O)[C@H]([C@H](O)[C@@H](O)c2ccc(O)cc2)NC(=O)[C@@H]2C[C@@H](O)CN2C(=O)[C@H]([C@@H](C)O)NC1=O [Caspofungin] show?
7.04

Bench note: what pH did C=CCN1CC[C@]23c4c5ccc(O)c4O[C@H]2C(=O)CC[C@@]3(O)[C@H]1C5 [Naloxone] show?
5.98

Bench note: what pH did NC12CC3CC(CC(C3)C1)C2 [1-Amantadine] show?
6.99
